method notes: Metabolic stability in rat liver S9 fraction assessed as half life at 100 uM measured upto 120 mins in presence of NADPH by HPLC analysis
Assay type: ADME, subcellular
readout name: half-life at 100 µM

{"columns": ["given smiles", "result"],
 "data": [
  ["Cc1[nH]c(C(=O)Nc2ccc(C(N)=O)cc2NCCN)c(Cl)c1Cl.Cl", "> 5 h"],
  ["COc1ccc(NC(=O)c2cc(Br)c(Br)[nH]2)c(C(=O)NCc2ccc(C(=O)O)cc2)c1", "4.83 h"],
  ["C[C@]12CC[C@H]3[C@@H](CCC4=CC(=O)CC[C@@]43C)[C@@H]1CC[C@@H]2O", "0.142 h"],
  ["Cc1[nH]c(C(=O)Nc2ccccc2OCc2cccc(C(=O)NCCN)c2)c(Cl)c1Cl.Cl", "> 5 h"],
  ["Cc1[nH]c(C(=O)Nc2ccc(C(N)=O)cc2OC2CCNCC2)c(Cl)c1Cl.Cl", "> 5 h"],
  ["Cc1[nH]c(C(=O)Nc2ccc(C(=O)NCCN)cc2OC(C)C)c(Cl)c1Cl.Cl", "> 5 h"]
]}

These entries and their values trace back to ChEMBL document CHEMBL5346880.
